// BIAS FACTOR lookup, one value per entry
tested on: NOP receptor; assay: NOP bias factor, G protein vs β-arrestin 2 (Black–Leff operational model); conditions: supplementary CSV (molecular formula strings); repeats Tables 1–7 without confidence limits
No end group written: not given here.
The answer should be a number; do not append a unit.

Reference set (2 entries):
| SUBSTANCE | READING |
| --- | --- |
| FGGFTGARKSAAK-NH2 [Compound 10, [Ala^12]N/OFQ(1–13)-NH2] | -0.15 |
| FGGFTGARASARK-NH2 [Compound 8, [Ala^9]N/OFQ(1–13)-NH2] | -0.15 |

The recorded BIAS FACTOR for FGGFTGARKAARK-NH2 [Compound 9, [Ala^10]N/OFQ(1–13)-NH2] is -0.08

Form: substance = FGGFTGARKSARA-NH2 [Compound 11, [Ala^13]N/OFQ(1–13)-NH2] ; BIAS FACTOR = -0.48

// FGGWTGARKSARK-NH2 [Compound 24, [Trp^4]N/OFQ(1–13)-NH2] : BIAS FACTOR value = 0.11

# BIAS FACTOR of LGGFTGARKSARK-NH2 [Compound 23, [Leu^1]N/OFQ(1–13)-NH2] = -0.08
